Listing: IC50 of selected binders
SUBJECT_OF_TEST: T1, mouse neurotensin type 3 receptor (solubilized) (mouse), Q6PHU5
T1 chain: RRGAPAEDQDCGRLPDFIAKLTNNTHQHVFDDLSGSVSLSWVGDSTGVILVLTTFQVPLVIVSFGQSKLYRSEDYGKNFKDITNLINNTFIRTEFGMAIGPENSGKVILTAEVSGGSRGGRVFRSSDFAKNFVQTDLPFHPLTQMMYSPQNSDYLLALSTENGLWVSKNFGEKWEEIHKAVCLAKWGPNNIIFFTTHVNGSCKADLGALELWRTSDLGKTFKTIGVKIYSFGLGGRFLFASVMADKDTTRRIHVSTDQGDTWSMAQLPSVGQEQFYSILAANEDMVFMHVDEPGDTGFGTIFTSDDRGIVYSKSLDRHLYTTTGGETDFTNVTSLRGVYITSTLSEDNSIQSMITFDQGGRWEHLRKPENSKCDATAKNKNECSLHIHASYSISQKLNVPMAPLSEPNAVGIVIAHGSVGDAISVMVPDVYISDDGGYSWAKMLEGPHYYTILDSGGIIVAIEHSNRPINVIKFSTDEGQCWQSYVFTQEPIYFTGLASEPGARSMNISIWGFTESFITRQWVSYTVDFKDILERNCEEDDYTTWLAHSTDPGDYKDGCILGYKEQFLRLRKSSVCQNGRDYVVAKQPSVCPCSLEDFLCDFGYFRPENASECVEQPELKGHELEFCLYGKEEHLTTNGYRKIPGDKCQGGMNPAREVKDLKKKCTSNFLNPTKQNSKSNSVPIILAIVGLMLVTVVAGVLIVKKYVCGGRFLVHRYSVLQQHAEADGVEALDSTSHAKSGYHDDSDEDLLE
READOUT: IC50 (nM)

1. QSEEGGSNATKKPYIL (modifications not checked) [non-glycosylated Thr10-contulakin-G]
71
2. QSEEGGSNATKKPYIL (modifications not checked) [contulakin-G (synthetic glycosylated 16-amino acid peptide, Gal(beta1->3)GalNAc(alpha1->) on Thr10)]
250
